Values were extracted from patent US20050080013A1.

- TARGET_UNDER_TEST: T1, lecithin:cholesterol acyltransferase (LCAT), purified from human plasma (human, UniProt P04180 25-440)
- T1 sequence (looked up): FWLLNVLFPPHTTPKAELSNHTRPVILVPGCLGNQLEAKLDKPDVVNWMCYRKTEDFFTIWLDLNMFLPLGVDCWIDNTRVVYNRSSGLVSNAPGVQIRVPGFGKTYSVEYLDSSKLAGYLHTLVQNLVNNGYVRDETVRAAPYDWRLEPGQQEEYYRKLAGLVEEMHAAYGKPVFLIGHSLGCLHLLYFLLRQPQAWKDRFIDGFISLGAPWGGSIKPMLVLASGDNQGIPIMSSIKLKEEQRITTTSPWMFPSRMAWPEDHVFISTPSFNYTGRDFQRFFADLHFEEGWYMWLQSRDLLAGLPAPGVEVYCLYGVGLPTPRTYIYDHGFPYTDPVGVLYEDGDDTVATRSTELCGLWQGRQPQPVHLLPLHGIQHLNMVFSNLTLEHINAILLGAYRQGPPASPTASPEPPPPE
- ASSAY_OVERVIEW: cell-based or functional assay
QUANTITY_KIND: ACTIVITY (%) LCAT

As a guide, the following entries are already answered.
- DWLKAFYDKVFEKFKEFF [peptide 245]: 4
- PVLDLFRELLNELWQKLK [peptide 219]: 24
- PVLDLFRELLELLKQKLK [peptide 217]: 30

a = Ac-EWLKAFYEKVLEKLKELF-NH2 [peptide 238]
b = PVLDLFRELLNELLEALQKKLK [peptide 24]
c = DWFKAFYDKVFEKFKEFF [peptide 241]
d = PVLDEFREKLNERLEALKQKLK [peptide 109]
# rank by ACTIVITY (%) LCAT, ascending (min first) Return value: ordered labels per request.
d, c, a, b
